- Test system: HEK-293T
- protocol_description: Multiplex assay against HEK293T
- Format: toxicity, cell-based
- particulars: human, 24 h, 10 µM, compound concentration 10 uM, replicate 2
measured_endpoint: Population Apoptotic (%)
Write the number in % without appending the unit.

Consider the following illustrative entries.
Enquiry: Could you tell me which Population Apoptotic (%) is on file for CC(C)COc1ccc(CNC(=O)N(Cc2ccc(F)cc2)C2CCN(C)CC2)cc1 [PIMAVANSERIN] ?
Return: 84

Enquiry: Could you tell me which Population Apoptotic (%) is on file for `CN(C)C(=O)Cn1cc(-c2ccc(-c3cncc4ccccc34)cc2)cn1` ?
Return: 45

Enquiry: Could you tell me which Population Apoptotic (%) is on file for `Cc1cnc(-c2cc(N3CCN(C(=O)CCS(C)(=O)=O)CC3)ncc2Cl)c(C)c1` ?
Return: 51

Enquiry: Could you tell me which Population Apoptotic (%) is on file for `Cc1noc(-c2ccc(-c3ccc(CC(=O)O)cc3)cc2)c1NC(=O)O[C@H](C)c1ccccc1Cl` ?
Return: 32

# next compound below
Enquiry: Could you tell me which Population Apoptotic (%) is on file for CC(=O)Nc1cccc2c1c(Sc1ccc(Cl)cc1)c(C)n2CC(=O)O [AZD1981] ?
Return: 59

---

- System: Fibroblast
- protocol_description: Multiplex assay against human fibroblast
- Assay type: toxicity, cell-based
- particulars: 12 h, 10 µM, compound concentration 10 uM, replicate 1
Recorded measurements of Population Tubulin-Different-Phenotype (%), one per entry
Write the number in % without appending the unit.

Consider the following illustrative entries.
Enquiry: Could you tell me which Population Tubulin-Different-Phenotype (%) is on file for CC(=O)Nc1cccc2c1c(Sc1ccc(Cl)cc1)c(C)n2CC(=O)O [AZD1981] ?
Return: 24

Enquiry: Could you tell me which Population Tubulin-Different-Phenotype (%) is on file for Cl.N=C(N)NC(=O)Cc1c(Cl)cccc1Cl [GUANFACINE HYDROCHLORIDE] ?
Return: 24

Others:
Enquiry: Could you tell me which Population Tubulin-Different-Phenotype (%) is on file for Cc1sc2c(c1C)C(c1ccc(Cl)cc1)=N[C@@H](CC(=O)NCCCCCCCCNC(=O)COc1cccc3c1C(=O)N(C1CCC(=O)NC1=O)C3=O)c1nnc(C)n1-2 (some centres undefined) ?
Return: 50

Enquiry: Could you tell me which Population Tubulin-Different-Phenotype (%) is on file for `Cc1cnc(-c2cc(N3CCN(C(=O)CCS(C)(=O)=O)CC3)ncc2Cl)c(C)c1` ?
Return: 24

Enquiry: Could you tell me which Population Tubulin-Different-Phenotype (%) is on file for `O=C1[C@H](Cc2ccc(O)cc2)N2C(=O)CCN(C(=O)NCc3ccccc3)[C@H]2CN1Cc1cccc2ccccc12` ?
Return: 84

Enquiry: Could you tell me which Population Tubulin-Different-Phenotype (%) is on file for `CCCOc1ccc2[nH]cc(C3=CCNCC3)c2n1.Cl` ?
Return: 41

Enquiry: Could you tell me which Population Tubulin-Different-Phenotype (%) is on file for `N#Cc1cc(F)cc(-c2nc(-c3ccc(F)cn3)no2)c1` ?
Return: 23

Enquiry: Could you tell me which Population Tubulin-Different-Phenotype (%) is on file for `Cc1cccc(NC(=O)CN2CCC(c3ccccn3)CC2)c1.Cl.Cl` ?
Return: 36

Enquiry: Could you tell me which Population Tubulin-Different-Phenotype (%) is on file for `CN(C)C(=O)Cn1cc(-c2ccc(-c3cncc4ccccc34)cc2)cn1` ?
Return: 52
